So I've got a bunch of molecules here, and I need their pIC50 values.
- System: H1299 (non-small cell lung carcinoma)
- MEASUREMENT_NOTES: In vitro antiproliferation assay, H1299 cells (TABLE 1 6 point assay; TABLE 2)
- Type: cell-based
- CONDITION: Homo sapiens, NCI-H1299, 6 point assay; H1299 cells; read-out: IC50, H1299 cells
pIC50: −log10 of the molar value.

Here is how some molecules turned out for pIC50.
Cc1cc(Nc2ncc(F)c(NC3C4C=CC(C4)C3C(N)=O)n2)ccc1N1CC(C)OC(C)C1 (racemic) :: ≥ 7.00
CN1CCN(c2ccc(Nc3ncc(F)c(N[C@H]4CCC[C@H]4C(N)=O)n3)cc2CO)CC1 (racemic) :: 5.00 to 6.00

In the following, a different molecule is considered.
Problem: GET pIC50 where system = H1299 (non-small cell lung carcinoma) and item = COc1cc(Nc2ncc(F)c(N[C@@H]3[C@H](C(N)=O)[C@H]4C=C[C@@H]3C4)n2)ccc1N1C(=O)CN(C)CC1=O (racemic)
Result: 6.00 to 7.00

* * *

- Test system: A549 (lung carcinoma)
- MEASUREMENT_NOTES: In vitro antiproliferation assay, A549 cells (TABLE 1 6 point assay; TABLE 2)
- Assay type: cell-based
- CONDITION: Homo sapiens, A549, 6 point assay; A549 cells; read-out: IC50, A549 cells
- Procedure: Certain compounds were tested against other cell types for their ability to inhibit proliferation in standard antiproliferation assays.
pIC50: −log10 of the molar value.
Assign pIC50 to each entry below.

Please report pIC50 for every entry that follows.
1. Cc1cc(Nc2ncc(F)c(N[C@H]3[C@@H](C(N)=O)[C@@H]4C=C[C@H]3C4)n2)ccc1N1CCN(C)CC1 [compound 234]
2. Cc1cc(Nc2ncc(F)c(N[C@H]3CCC[C@H]3C(N)=O)n2)ccc1N1CC(C)OC(C)C1 (mixture of isomers)
3. CN1CCN(c2ccc(Nc3ncc(F)c(NC4C5C=CC(C5)C4C(N)=O)n3)cc2C#N)CC1 (racemic)
4. CC(=O)N1CCN(c2ccc(Nc3ncc(F)c(NC4CCCC4C(N)=O)n3)cc2)CC1 (stereo not drawn)

Result:
1. ≥ 7.00
2. 6.00 to 7.00
3. ≥ 7.00
4. 6.00 to 7.00

For each entry beneath this line, provide reported pIC50.
1. CN1CCN(c2ccc(Nc3ncc(F)c(NC4C5C=CC(C5)C4C(N)=O)n3)cc2)CC1 (racemic)
2. Cc1cc(Nc2ncc(F)c(NC3C4C=CC(C4)C3C(N)=O)n2)ccc1N1CC(C)OC(C)C1 (racemic)

Result:
["≥ 7.00", "≥ 7.00"]

* * *

- System: H1299 (non-small cell lung carcinoma)
- MEASUREMENT_NOTES: In vitro antiproliferation assay, H1299 cells (TABLE 1 6 point assay; TABLE 2)
- Type: cell-based
- CONDITION: Homo sapiens, NCI-H1299, 6 point assay; H1299 cells; read-out: IC50, H1299 cells
pIC50: −log10 of the molar value.
Record form. Attribute: pIC50. Fill in for each entry.

Consider the worked cases shown below.
Cc1cc(Nc2ncc(F)c(NC3C4C=CC(C4)C3C(N)=O)n2)ccc1O (racemic) :: ≥ 7.00
Cc1cc(Nc2ncc(F)c(NC3C4C=CC(C4)C3C(N)=O)n2)ccc1N1CCN(C(C)C)CC1 (racemic) :: ≥ 7.00
CN1CCN(c2ccc(Nc3ncc(F)c(NC4C5C=CC(C5)C4C(N)=O)n3)cc2Cl)CC1 (racemic) :: ≥ 7.00

Problem: Identify pIC50 associated with the compound `Cc1cc(Nc2ncc(F)c(NC3(C(N)=O)CCCC3)n2)ccc1N1CCN(C)CC1`
Result: < 5.00
